System: 201T
Experiment: relative viability (nuclei count vs DMSO), 5 days (fraction); higher = more cells survive
Details: first compound 0.8 µM
observable: relative viability
Write the number on its own, no unit after it.

Specify relative viability for C=C1C(=O)O[C@@H](CCCCCCCC)[C@@H]1C(=O)O [C-75] + Nc1ncn([C@H]2C[C@H](O)[C@@H](CO)O2)c(=O)n1 [Decitabine] (partner 2 µM) and stop.
0.842

Specify relative viability for Oc1nc(-c2ccc(C(F)(F)F)cc2)nc2c1CSCC2 [XAV939] + Cc1cc(Nc2cc(N3CCN(C)CC3)nc(Sc3ccc(NC(=O)C4CC4)cc3)n2)n[nH]1 [Tozasertib] (partner 0.1 µM) and stop.
0.812

Specify relative viability for Oc1nc(-c2ccc(C(F)(F)F)cc2)nc2c1CSCC2 [XAV939] + Cc1nc(NC(=O)N2CCC[C@H]2C(N)=O)sc1-c1ccnc(C(C)(C)C(F)(F)F)c1 [Alpelisib] (partner 2 µM) and stop.
0.947

Specify relative viability for Oc1nc(-c2ccc(C(F)(F)F)cc2)nc2c1CSCC2 [XAV939] + Nc1ncn([C@H]2C[C@H](O)[C@@H](CO)O2)c(=O)n1 [Decitabine] (partner 2 µM) and stop.
0.779

Specify relative viability for C=C1C(=O)O[C@@H](CCCCCCCC)[C@@H]1C(=O)O [C-75] + CCNC(=O)c1noc(-c2cc(C(C)C)c(O)cc2O)c1-c1ccc(CN2CCOCC2)cc1 [Luminespib] (partner 0.01 µM) and stop.
1.07

* * *

Provide the recorded relative viability for the entries that follow.
Tested on: LCLC-97TM1
Experiment: relative viability (nuclei count vs DMSO), 5 days (fraction); higher = more cells survive
Details: first compound 0.1581 µM
Write the number on its own, no unit after it.

Specify relative viability for CC1(C)CCC(c2ccc(Cl)cc2)=C(CN2CCN(c3ccc(C(=O)NS(=O)(=O)c4ccc(N[C@H](CCN5CCOCC5)CSc5ccccc5)c(S(=O)(=O)C(F)(F)F)c4)cc3)CC2)C1 [Navitoclax] + COc1cc2c(Oc3ccc(NC(=O)C4(C(=O)Nc5ccc(F)cc5)CC4)cc3F)ccnc2cc1OCCCN1CCOCC1 [Foretinib] (partner 0.25 µM) and stop.
0.985

Specify relative viability for CC1(C)CCC(c2ccc(Cl)cc2)=C(CN2CCN(c3ccc(C(=O)NS(=O)(=O)c4ccc(N[C@H](CCN5CCOCC5)CSc5ccccc5)c(S(=O)(=O)C(F)(F)F)c4)cc3)CC2)C1 [Navitoclax] + NC(=O)Nc1cc(-c2cccc(F)c2)sc1C(=O)N[C@H]1CCCNC1 [AZD7762] (partner 0.2 µM) and stop.
0.253

* * *

System: HCC-44
Test: relative viability (nuclei count vs DMSO), 5 days (fraction); higher = more cells survive
Conditions: first compound 0.3162 µM
Provide the recorded relative viability for the entries that follow.
Write the number on its own, no unit after it.

Specify relative viability for NC(=O)Nc1cc(-c2cccc(F)c2)sc1C(=O)N[C@H]1CCCNC1 [AZD7762] + Cc1cc(Nc2cc(N3CCN(C)CC3)nc(Sc3ccc(NC(=O)C4CC4)cc3)n2)n[nH]1 [Tozasertib] (partner 0.1 µM) and stop.
0.822

Specify relative viability for NC(=O)Nc1cc(-c2cccc(F)c2)sc1C(=O)N[C@H]1CCCNC1 [AZD7762] + COc1cccc2cc(-c3nc([C@H]4CC[C@H](C(=O)O)CC4)n4ncnc(N)c34)[nH]c12 [OSI-027] (partner 0.5 µM) and stop.
0.65

Specify relative viability for NC(=O)Nc1cc(-c2cccc(F)c2)sc1C(=O)N[C@H]1CCCNC1 [AZD7762] + O=C(CCCCCCC(=O)Nc1ccccc1)NO [Vorinostat] (partner 1 µM) and stop.
1.1

Specify relative viability for NC(=O)Nc1cc(-c2cccc(F)c2)sc1C(=O)N[C@H]1CCCNC1 [AZD7762] + CC1(C)CCC(c2ccc(Cl)cc2)=C(CN2CCN(c3ccc(C(=O)NS(=O)(=O)c4ccc(N[C@H](CCN5CCOCC5)CSc5ccccc5)c(S(=O)(=O)C(F)(F)F)c4)cc3)CC2)C1 [Navitoclax] (partner 0.5 µM) and stop.
0.901

Specify relative viability for NC(=O)Nc1cc(-c2cccc(F)c2)sc1C(=O)N[C@H]1CCCNC1 [AZD7762] + CS(=O)(=O)CCNCc1ccc(-c2ccc3ncnc(Nc4ccc(OCc5cccc(F)c5)c(Cl)c4)c3c2)o1 [Lapatinib] (partner 2 µM) and stop.
0.932

* * *

Tested on: NCI-H1975
Test: relative viability (nuclei count vs DMSO), 5 days (fraction); higher = more cells survive
Details: first compound 0.8 µM
Provide the recorded relative viability for the entries that follow.
Write the number on its own, no unit after it.

Specify relative viability for Oc1nc(-c2ccc(C(F)(F)F)cc2)nc2c1CSCC2 [XAV939] + CC1(C)CCC(c2ccc(Cl)cc2)=C(CN2CCN(c3ccc(C(=O)NS(=O)(=O)c4ccc(N[C@H](CCN5CCOCC5)CSc5ccccc5)c(S(=O)(=O)C(F)(F)F)c4)cc3)CC2)C1 [Navitoclax] (partner 0.5 µM) and stop.
1.06

Specify relative viability for Oc1nc(-c2ccc(C(F)(F)F)cc2)nc2c1CSCC2 [XAV939] + C[C@]1(O)C[C@@H](c2nc(-c3ccc4ccc(-c5ccccc5)nc4c3)c3c(N)nccn32)C1 [Linsitinib] (partner 1 µM) and stop.
0.97

Specify relative viability for C=C1C(=O)O[C@@H](CCCCCCCC)[C@@H]1C(=O)O [C-75] + Nc1nc2[nH]cc(CCc3ccc(C(=O)N[C@@H](CCC(=O)O)C(=O)O)cc3)c2c(=O)[nH]1 [Pemetrexed] (partner 0.2 µM) and stop.
0.262

Specify relative viability for C=C1C(=O)O[C@@H](CCCCCCCC)[C@@H]1C(=O)O [C-75] + Cc1cc(Nc2cc(N3CCN(C)CC3)nc(Sc3ccc(NC(=O)C4CC4)cc3)n2)n[nH]1 [Tozasertib] (partner 0.1 µM) and stop.
0.684

* * *

Tested on: NCI-H2342
Experiment: relative viability (nuclei count vs DMSO), 5 days (fraction); higher = more cells survive
Conditions: first compound 0.04 µM
observable: relative viability
Write the number on its own, no unit after it.

# return relative viability of O=C(O)c1ccc(-c2c[nH]c3ncc(-c4ccccc4)cc23)cc1C1CCCC1 + COc1cc2c(Oc3ccc(NC(=O)C4(C(=O)Nc5ccc(F)cc5)CC4)cc3F)ccnc2cc1OCCCN1CCOCC1 [Foretinib] (partner 0.25 µM) (system: NCI-H2342)
1.03

# return relative viability of O=C(O)c1ccc(-c2c[nH]c3ncc(-c4ccccc4)cc23)cc1C1CCCC1 + Cc1nc(Nc2ncc(C(=O)Nc3c(C)cccc3Cl)s2)cc(N2CCN(CCO)CC2)n1 [Dasatinib] (partner 0.075 µM) (system: NCI-H2342)
0.34

# return relative viability of O=C(O)c1ccc(-c2c[nH]c3ncc(-c4ccccc4)cc23)cc1C1CCCC1 + CCNC(=O)c1noc(-c2cc(C(C)C)c(O)cc2O)c1-c1ccc(CN2CCOCC2)cc1 [Luminespib] (partner 0.01 µM) (system: NCI-H2342)
0.773

# return relative viability of O=C(O)c1ccc(-c2c[nH]c3ncc(-c4ccccc4)cc23)cc1C1CCCC1 + CC(=O)Nc1cccc(-n2c(=O)n(C3CC3)c(=O)c3c(Nc4ccc(I)cc4F)n(C)c(=O)c(C)c32)c1 [Trametinib] (partner 0.02 µM) (system: NCI-H2342)
0.768

* * *

System: NCI-H1299
Assay: relative viability (nuclei count vs DMSO), 5 days (fraction); higher = more cells survive
Settings: first compound 0.1581 µM
observable: relative viability
Write the number on its own, no unit after it.

Specify relative viability for CC1(C)CCC(c2ccc(Cl)cc2)=C(CN2CCN(c3ccc(C(=O)NS(=O)(=O)c4ccc(N[C@H](CCN5CCOCC5)CSc5ccccc5)c(S(=O)(=O)C(F)(F)F)c4)cc3)CC2)C1 [Navitoclax] + CS(=O)(=O)CCNCc1ccc(-c2ccc3ncnc(Nc4ccc(OCc5cccc(F)c5)c(Cl)c4)c3c2)o1 [Lapatinib] (partner 2 µM) and stop.
0.979

Specify relative viability for CC1(C)CCC(c2ccc(Cl)cc2)=C(CN2CCN(c3ccc(C(=O)NS(=O)(=O)c4ccc(N[C@H](CCN5CCOCC5)CSc5ccccc5)c(S(=O)(=O)C(F)(F)F)c4)cc3)CC2)C1 [Navitoclax] + CS(=O)(=O)N1CCN(Cc2cc3nc(-c4cccc5[nH]ncc45)nc(N4CCOCC4)c3s2)CC1 [Pictilisib] (partner 1 µM) and stop.
0.822

Specify relative viability for CC1(C)CCC(c2ccc(Cl)cc2)=C(CN2CCN(c3ccc(C(=O)NS(=O)(=O)c4ccc(N[C@H](CCN5CCOCC5)CSc5ccccc5)c(S(=O)(=O)C(F)(F)F)c4)cc3)CC2)C1 [Navitoclax] + COc1cc2c(Oc3ccc(NC(=O)C4(C(=O)Nc5ccc(F)cc5)CC4)cc3F)ccnc2cc1OCCCN1CCOCC1 [Foretinib] (partner 0.25 µM) and stop.
1.11

Specify relative viability for CC1(C)CCC(c2ccc(Cl)cc2)=C(CN2CCN(c3ccc(C(=O)NS(=O)(=O)c4ccc(N[C@H](CCN5CCOCC5)CSc5ccccc5)c(S(=O)(=O)C(F)(F)F)c4)cc3)CC2)C1 [Navitoclax] + O=C(c1cc(Cc2n[nH]c(=O)c3ccccc23)ccc1F)N1CCN(C(=O)C2CC2)CC1 [Olaparib] (partner 8 µM) and stop.
0.977
